Tested on: LG0703-F948-PDC complex spheroid viability;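 further: spheroids exposed to agents for 7 days; 100% = DMSO vehicle wells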
Assay Notes: Anticancer human tumor LG0703-F948-PDC patient-derived lung adenocarcinoma cell line growth inhibition [RAS]
Measurement Setup: second compound 1 µM; first compound 0.1 µM; stronger effect = lower value
Exercise: state measured viability, T/C for each of the molecules provided.
One number for each entry, in %.

Batch of 5 molecules: report viability, T/C for each.
1. CCN1CCN(Cc2ccc(Nc3ncc(F)c(-c4cc(F)c5nc(C)n(C(C)C)c5c4)n3)nc2)CC1 + C#Cc1c(F)ccc2cc(O)cc(-c3ncc4c(N5CC6CCC(C5)N6)nc(OCC56CCCN5CC(F)C6)nc4c3F)c12
2. C[C@@H](NC(=O)c1ncnc(N)c1Cl)c1ncc(C(=O)Nc2cc(C(F)(F)F)c(Cl)cn2)s1 + C#Cc1c(F)ccc2cc(O)cc(-c3ncc4c(N5CC6CCC(C5)N6)nc(OCC56CCCN5CC(F)C6)nc4c3F)c12
3. C[C@@H](NC(=O)c1ncnc(N)c1Cl)c1ncc(C(=O)Nc2cc(C(F)(F)F)c(Cl)cn2)s1 + C=CC(=O)N1CCN(c2nc(OCC3CCCN3C)nc3c(F)c(-c4nc(N)cc(C)c4C(F)(F)F)c(Cl)cc23)C(C)C1
4. CC(C)NCC(C(=O)N1CCN(c2ncnc3c2C(C)CC3O)CC1)c1ccc(Cl)cc1 (stereo not given) + C=CC(=O)N1CCN(c2nc(OCC3CCCN3C)nc3c(F)c(-c4nc(N)cc(C)c4C(F)(F)F)c(Cl)cc23)C(C)C1
5. CC(Nc1ccc2c(c1)OCCn1cc(N3C(=O)OCC3C(F)F)nc1-2)C(N)=O (stereo not given) + C=CC(=O)N1CCN(c2nc(OCC3CCCN3C)nc3c(F)c(-c4nc(N)cc(C)c4C(F)(F)F)c(Cl)cc23)C(C)C1

1. 68.7
2. 74.1
3. 116
4. 97
5. 96.5
